System: primary human total T-cells
PROCEDURE TEXT: T-cell activation, CD25 surface staining, Biological Example 2
Type: cell-based
SETUP CONDITIONS: anti-CD3 and anti-CD28 co-stimulation, 48 hours, 0.3 μM inhibitor, fold change over baseline
Give measured fold induction at 0.3 µM for each item. Keep answers brief.

Please look at this compound and report its fold induction at 0.3 µM: Cn1cnnc1C[C@]1(c2cccc(N3Cc4c(cc(CN5CCC[C@H](C(F)(F)F)C5)nc4C4CC4)C3=O)c2)C[C@H](C#N)C1
> 1.39

Please look at this compound and report its fold induction at 0.3 µM: Cn1cnnc1C[C@]1(c2cccc(N3Cc4c(cc(CN5CCCC(F)(F)CC5)cc4C(F)(F)F)C3=O)c2)C[C@H](C#N)C1
1.24 to 1.39

Please look at this compound and report its fold induction at 0.3 µM: Cn1cnnc1C[C@]1(c2cccc(N3Cc4c(cc(CN5CC6CCC(F)(F)C6C5)cc4C(F)(F)F)C3=O)c2)C[C@H](C#N)C1 (stereo partly drawn)
> 1.39
